Measured Primary assay EC50 (cAMP), n1 by item
molecular target: GLP-1 receptor (GLP-1R), primary cAMP assay (human, UniProt P43220 24-463); test: cell-based or functional assay
Starred links: 1 amine or outer side, 2 acyl side, 3 side chain; linkers in the order of their positions; H or OH if unused. Non-standard residues stand in square brackets, D forms with d. Groups on a side chain read outwards from the residue. Primed or numbered codes have the meaning given here. No end group written: not given here. *: point of attachment. γGlu = O=C(O)[C@H](CCC(=O)[*:2])N[*:1]; Palmitoyl = CCCCCCCCCCCCCCCC(=O)*; αMeF = C[C@](N)(Cc1ccccc1)C(=O)O; αMeK = C[C@](N)(CCCCN)C(=O)O; Lauroyl = CCCCCCCCCCCC(=O)*; αMeS = C[C@](N)(CO)C(=O)O; PEG2′ = not defined here; Aib = CC(C)(N)C(=O)O
Reply numerically in nM, unit not repeated.

BINDER	MEASURED PARAMETER	MEASURED NUMBER
H[Aib]EGS[αMeF]TSDV[αMeS]SK([PEG2′-PEG2′-γGlu-Lauroyl])LEGEAA[αMeK]EFIAK([PEG2′-PEG2′-γGlu-Lauroyl])VVEGG-NH2 [SEQ ID NO: 263]	Primary assay EC50 (cAMP), n1	0.000998

Task: Looking for the measured Primary assay EC50 (cAMP), n1 of H[Aib]EGTFTSDVSK([PEG2′-PEG2′-γGlu-Palmitoyl])FLEGEAAEEFIK([PEG2′-PEG2′-γGlu-Palmitoyl])FVVEGG-NH2 [SEQ ID NO: 245] , can you help?
Output: 12.3

// data source = patent US20200079833A1
